Read-out: Cytochrome P450 3A4 (Homo sapiens) (UniProt P08684)
Sequence (P08684 whole entry, looked up): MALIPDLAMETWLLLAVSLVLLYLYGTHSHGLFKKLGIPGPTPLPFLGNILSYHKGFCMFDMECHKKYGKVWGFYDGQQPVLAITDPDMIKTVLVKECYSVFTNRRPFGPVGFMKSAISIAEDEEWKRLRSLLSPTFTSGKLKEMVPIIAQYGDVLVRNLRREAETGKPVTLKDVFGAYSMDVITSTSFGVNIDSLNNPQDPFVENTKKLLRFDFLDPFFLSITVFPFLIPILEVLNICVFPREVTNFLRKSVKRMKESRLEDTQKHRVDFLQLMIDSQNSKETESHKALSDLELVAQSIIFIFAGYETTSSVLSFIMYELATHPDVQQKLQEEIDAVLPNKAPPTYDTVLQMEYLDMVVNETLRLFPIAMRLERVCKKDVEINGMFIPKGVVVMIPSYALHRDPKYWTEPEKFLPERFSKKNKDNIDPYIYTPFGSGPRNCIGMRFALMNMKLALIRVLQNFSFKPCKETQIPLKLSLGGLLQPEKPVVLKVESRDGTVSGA
Assay: CLD_CYP3A4_24hr: CellzDirect (CLD) Gene Expression Assay for xenobiotic metabolism (CYP3A4) at 24 hours (AID 2283689)
Records with an inconclusive call do not appear. Active and inactive are the calls of the source. The calls were made as follows: active = hit-call score of the fitted dose curve at least 0.9, where 1 is the maximum; inconclusive = response in the unintended direction; inactive = score below 0.9.
Attribute Measured: AC50

Consider the reported AC50 for these compounds:
c1ccc(Nc2ccccc2)cc1; inactive
COc1nc(C)nc(NC(=O)NS(=O)(=O)c2ccccc2OCCCl)n1; 6.77 µM (active)
O=C(O)C1(C(=O)Nc2ccc(Cl)cc2Cl)CC1; inactive
CCOC(=O)C(C)Oc1ccc(Oc2nc3ccc(Cl)cc3o2)cc1 (centres undefined); inactive
CCCCCOC(=O)COc1cc(N2C(=O)C3=C(CCCC3)C2=O)c(F)cc1Cl; 4.01 µM (active)
CC(C)(c1ccc(O)cc1)c1ccc(O)cc1; inactive

Provide only the value of recorded AC50 for CCCCOC(=O)[C@@H](C)Oc1ccc(Oc2ccc(C(F)(F)F)cn2)cc1
inactive

Provide only the value of recorded AC50 for S=C([S-])NCCNC(=S)[S-].[Mn+2]
inactive

Provide only the value of recorded AC50 for CCCOC(=O)NCCCN(C)C
inactive

---

Read-out: growth arrest and DNA damage 45 (GADD45G), GADD45G (gene 10912)
Assay: LTEA_HepaRG_GADD45G: Life Technologies and Expression Analysis (LTEA) Assay for growth arrest and DNA damage 45 (GADD45G) using HepaRG (AID 2283499)
Conditions: mRNA level, 48 h; actives raise or lower the signal
Calls of active or inactive are those of the source. The calls were made as follows: active = hit-call score of the fitted dose curve at least 0.9, where 1 is the maximum; inactive = score below 0.9.
Attribute Measured: AC50

Consider the reported AC50 for these compounds:
CCCCOC(=O)C(C)Oc1ccc(Oc2ccc(C(F)(F)F)cn2)cc1 (centres undefined); inactive
C=CCOC(Cn1ccnc1)c1ccc(Cl)cc1Cl (centres undefined); 91.6 µM (active)
O=C(Nc1ccc([N+](=O)[O-])cc1Cl)c1cc(Cl)ccc1O; inactive
CC(C)CCCCCCc1ccc(O)cc1; inactive
CCCN(CCC)c1c([N+](=O)[O-])cc(C(F)(F)F)c(N)c1[N+](=O)[O-]; inactive

Provide only the value of recorded AC50 for CCCOC(=O)c1ccc(C(=O)OCCC)nc1
inactive

Provide only the value of recorded AC50 for C[C@]12C[C@H](O)[C@H]3[C@@H](CCC4=CC(=O)CC[C@@]43C)[C@@H]1CC[C@@H]2C(=O)CO
inactive

Provide only the value of recorded AC50 for N[C@@H](Cc1cc(I)c(Oc2ccc(O)c(I)c2)c(I)c1)C(=O)O
inactive

---

Assay: CPHEA_Stoker_NIS_Cytotoxicity: Cytotoxicity Assessment for CPHEA's Radioactive Iodide Uptake (RAIU) Assay for Sodium/Iodide Symporter (NIS) Inhibition, Stoker and Laws Labs (AID 2283897)
Calls of active or inactive are those of the source. How the source made its calls: active means hit-call score of the fitted dose curve at least 0.9, where 1 is the maximum; inconclusive means response in the unintended direction; inactive means score below 0.9.
Just give me one of these, please: y (active), n (inactive)

Would you please look over these solved cases?
CCCCOCCOCCOCc1cc2c(cc1CCC)OCO2; n
CCCN(CCC)C(=O)SCC; n
N[C@@H](Cc1cc(I)c(Oc2ccc(O)c(I)c2)c(I)c1)C(=O)O; n

Next compound, please.
Test call, this compound: O=C(Nc1ccc([N+](=O)[O-])cc1Cl)c1cc(Cl)ccc1O
n

---

Read-out: Interferon-gamma inducible Protein 10 (IP10), CXCL10 (gene 3627)
Experiment: BSK_KF3CT_IP10: BioMAP Diversity Plus: KF3CT Assay for Interferon-gamma inducible Protein 10 (IP10) Biomarker Activity (AID 2283068)
Details: primary human keratinocytes with fibroblasts; actives raise or lower the signal
The source made the active and inactive calls. The calls were made as follows: active = hit-call score of the fitted dose curve at least 0.9, where 1 is the maximum; inactive = score below 0.9.
Just give me one of these, please: active, inactive

Would you please look over these solved cases?
CCCCOC(=O)C(C)Oc1ccc(Oc2ccc(C(F)(F)F)cn2)cc1 (stereo unspecified); inactive
COc1c(Cl)ccc(Cl)c1C(=O)O; inactive
CCCCC(CC)COC(=O)c1ccccc1C(=O)O (stereo unspecified); inactive

Test call, this compound: CCC(O)=C1C(=O)CC(C(=O)O)CC1=O (stereo unspecified)
inactive

Test call, this compound: CCOC(=O)NCCOc1ccc(Oc2ccccc2)cc1
inactive

Test call, this compound: CC1(C)C(C=C(Cl)Cl)C1C(=O)OCc1cccc(Oc2ccccc2)c1 (stereo unspecified)
inactive

Test call, this compound: COCCO
inactive

Test call, this compound: CCOC(=O)COc1cc(-n2ncc(C(F)(F)F)c(C)c2=O)c(F)cc1Cl
inactive

Test call, this compound: c1ccc2[nH]c(-c3cscn3)nc2c1
inactive

Test call, this compound: COc1nc(C)nc(NC(=O)NS(=O)(=O)c2ccccc2OCCCl)n1
inactive

Test call, this compound: N[C@@H](Cc1cc(I)c(Oc2ccc(O)c(I)c2)c(I)c1)C(=O)O
inactive

Test call, this compound: O=C(O)C1(C(=O)Nc2ccc(Cl)cc2Cl)CC1
inactive

Test call, this compound: CCSC(=O)N(CC(C)C)CC(C)C
inactive

Test call, this compound: CCC(C)OC(=O)N1CCCCC1CCO (stereo unspecified)
inactive

---

Test: BSK_4H_Eotaxin3: BioMAP Diversity Plus: 4H Assay for Eotaxin 3 Biomarker Activity (AID 2283000)
Settings: primary human endothelial cells (HUVEC); actives raise or lower the signal
Activity calls are given as the source filed them. How the source made its calls: active means hit-call score of the fitted dose curve at least 0.9, where 1 is the maximum; inactive means score below 0.9.
Just give me one of these, please: 1 = active, -1 = inactive

Would you please look over these solved cases?
c1ccc(Nc2ccccc2)cc1; -1
C#CCOC(=O)[C@@H](C)Oc1ccc(Oc2ncc(Cl)cc2F)cc1; -1
CCCOC(=O)NCCCN(C)C; -1
OB(O)O; -1
COC(=O)CSc1cc(N=c2sc(=O)n3n2CCCC3)c(F)cc1Cl; -1

Test call, this compound: CC1(C)C(C=C(Cl)Cl)C1C(=O)OCc1cccc(Oc2ccccc2)c1 (stereo not drawn)
-1

Test call, this compound: S=C([S-])NCCNC(=S)[S-].[Mn+2]
1

Test call, this compound: COc1nc(C)nc(NC(=O)NS(=O)(=O)c2ccccc2OCCCl)n1
-1

Test call, this compound: CC(C)(c1ccc(O)cc1)c1ccc(O)cc1
-1

Test call, this compound: CCOC(=O)NCCOc1ccc(Oc2ccccc2)cc1
-1

Test call, this compound: CC(=O)[C@H]1CC[C@H]2[C@@H]3CCC4=CC(=O)CC[C@]4(C)[C@H]3CC[C@]12C
1

Test call, this compound: C=CCOC(Cn1ccnc1)c1ccc(Cl)cc1Cl (stereo not drawn)
-1

Test call, this compound: COC(=O)c1ccccc1C(=O)O
-1

Test call, this compound: COCCO
-1

Test call, this compound: COC(=O)c1ccccc1S(=O)(=O)NC(=O)Nc1nc(OC(F)F)cc(OC(F)F)n1
-1

Test call, this compound: O=C(O)C1(C(=O)Nc2ccc(Cl)cc2Cl)CC1
-1

Test call, this compound: CCCCOCCOCCOCc1cc2c(cc1CCC)OCO2
-1

Test call, this compound: CCCN(CCC)c1c([N+](=O)[O-])cc(C(F)(F)F)c(N)c1[N+](=O)[O-]
1

Test call, this compound: CC(C)CCCCCCc1ccc(O)cc1
1

Test call, this compound: CCOC(=O)c1ccc(O)cc1
-1

Test call, this compound: CCCN(CCC)C(=O)SCC
-1

---

Parameter AC50: see the listing below.
Test system: NCBI gene 100848466
Test: NVS_NR_bPR: NovaScreen (NVS) Nuclear Receptor Binding Assay for bovine Progextron Receptor (PR) (AID 2283343);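 also: actives lower bound radioligand signal below DMSO meaning displacement of the label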
Results filed as inconclusive are left out. The source made the active and inactive calls. How the source made its calls: active means hit-call score of the fitted dose curve at least 0.9, where 1 is the maximum; inconclusive means response in the unintended direction; inactive means score below 0.9.

Consider the reported AC50 for these compounds:
Cc1nn(C)c(Oc2ccccc2)c1C=NOCc1ccc(C(=O)OC(C)(C)C)cc1; 11 µM (active)
C#C[C@]1(O)CC[C@H]2[C@@H]3CCC4=CC(=O)CC[C@@H]4[C@H]3CC[C@@]21CC; 0.00453 µM (active)
C=CCOC(Cn1ccnc1)c1ccc(Cl)cc1Cl (stereo not given); 13 µM (active)

Provide only the value of recorded AC50 for CC(=O)S[C@@H]1CC2=CC(=O)CC[C@]2(C)[C@H]2CC[C@@]3(C)[C@@H](CC[C@@]34CCC(=O)O4)[C@H]12
1.53 µM (active)

---

Test: ATG_E_Box_CIS: Attagene CIS-FACTORIAL HepG2 Assay for human Enhancer Box (E-box) (AID 2282936)
Conditions: HepG2 E-box cis-reporter transcription, actives raise or lower the signal
The source made the active and inactive calls. The calls were made as follows: active = hit-call score of the fitted dose curve at least 0.9, where 1 is the maximum; inactive = score below 0.9.
Just give me one of these, please: t = active, f = inactive

Would you please look over these solved cases?
CCCCCOC(=O)COc1cc(N2C(=O)C3=C(CCCC3)C2=O)c(F)cc1Cl; t
CCN(CC)C(=O)c1cccc(C)c1; f
C#C[C@]1(O)CC[C@H]2[C@@H]3CCC4=CC(=O)CC[C@@H]4[C@H]3CC[C@@]21CC; f
CC(C)(c1ccc(O)cc1)c1ccc(O)cc1; f

Next molecule, please.
Test call, this molecule: COC(=O)c1ccccc1C(=O)O
f

src = PubChem BioAssay (EPA / NIEHS)
